Assignment: determine reported Filtration period of aqueous solution for the given molecules.
- protocolNotes: Filterability evaluation: time period required for filtration through a membrane filter
- Type: physicochemical
- condition: pH 11; L-arginine 5g/dl, 30°C, 1.4 ℓ, 2 x 10⁵ Pa, Millipore 0.22 µmGS membrane filter
Quick reminder: number only, in s, skip the unit.

Look up Filtration period of aqueous solution for this molecule: N=C(N)NCCC[C@H](N)C(=O)O [Solution of purified crystals by LR-O method] [L-arginine]
921

Look up Filtration period of aqueous solution for this molecule: N=C(N)NCCC[C@H](N)C(=O)O [UF method, L-arginine]
850

Look up Filtration period of aqueous solution for this molecule: N=C(N)NCCC[C@H](N)C(=O)O [LR-O method, L-arginine]
930

Look up Filtration period of aqueous solution for this molecule: N=C(N)NCCC[C@H](N)C(=O)O [Conventional method, L-arginine]
1010
